test system: HT-29; assay: NCI tumour cell line growth inhibition, 48 h
Calls of active or inactive are those of the source. Cut-off read from the data, not from the text of the source: active = GI50 up to about 1.1 µM and inactive = higher.
Would you kindly list GI50 for each of these molecules?

Solved cases below.
COc1ccc(NC(=O)C2=C(SC)C(=O)N=C2N)cc1; > 100 µM (inactive)
c1ccc2c(c1)Nc1cccc3c1c-2nc1cc2ccccc2cc13; 1.72 µM (inactive)
C/C=C1\CC(C(=O)OCC)CCCCCCCCCCC1=O (stereo not drawn); 46.8 µM (inactive)
O=C1/C(=C\c2ccccc2)C2/C(=C\c3ccccc3)C(=O)/C(=C\c3ccccc3)C2/C1=C\c1ccccc1 (stereo not drawn); 1.34 µM (inactive)
CC1(C)N=C(c2ccccc2)SC12S[C@@H]1CCCC[C@H]1S2; 94.6 µM (inactive)
CCOC(=O)c1c(SC(=O)C(C)(C)Oc2ccc(Cl)cc2)n(-c2ccccc2)c(=S)n(-c2ccccc2)c1=O; 27.4 µM (inactive)
CN1CCN(C(=S)N(C)C(=O)c2ccco2)CC1; > 100 µM (inactive)
Cc1ccc(/N=N/c2c(C)c(C#N)c(=S)n(C3OC(CO)C(O)C(O)C3O)c2-c2ccccc2)cc1 (stereo not drawn); 27.7 µM (inactive)
CC1CC[C@@]2(OC1)OC1C[C@H]3[C@@H]4CC=C5C[C@@H](OC6OC(CO)C(OC7OC(CO)C(O)C(O)C7O)C(O)C6OC6OC(C)C(O)C(O)C6O)CC[C@]5(C)[C@H]4CC[C@]3(C)C1[C@@H]2C (stereo partly drawn); 0.475 µM (active)
COC(=O)C(C(=O)C(=O)Nc1ccccc1OC)c1csc(-n2nc(-c3ccccc3)cc2-c2ccccc2)n1 (stereo not drawn); 59.3 µM (inactive)

Would you mind giving GI50 for every molecule in the list below?
1. COc1c(C)c(OC)c2c(c1O)[C@@H]1[C@@H]3Cc4c(OC)c(C)c(OC)c(O)c4[C@H](CNC(=O)c4cnc5ccccc5n4)N3[C@@H](C#N)[C@H](C2)N1C
2. O=[N+]([O-])c1ccc(Cl)cc1C1SCc2nc3ccccc3n21 (stereo not drawn)
3. OC1=CN=C(c2ccccc2)Oc2ccccc21
4. CC(=O)OCC1OC(Nc2ccc3nc(C)n(-c4cccc(C)c4)c(=O)c3c2)C(OC(C)=O)C(OC(C)=O)C1OC(C)=O (stereo not drawn)
5. COc1ccc2c(c1)CCc1[nH]c3ccccc3c1CCCC2
6. O=C1C=CC2(O)OCC3C=C4O[C@@H]5OC6(CCCCC6)O[C@@H]5C4[C@@H]2[C@@H]13 (stereo partly drawn)
7. Cc1ccc2nc(-c3nccn3C)cc(C(=O)NC(C)CN(C)C)c2c1 (stereo not drawn)

1: 0.00206 µM (active); 2: > 100 µM (inactive); 3: > 100 µM (inactive); 4: > 62.5 µM (inactive); 5: > 10 µM (inactive); 6: 22.3 µM (inactive); 7: 72.6 µM (inactive)

Look up GI50: COC(=O)C12C3C4C5C3(C#N)C1C5(C(=O)OC)C42C(=O)N(C(C)C)C(C)C (stereo not drawn)
> 100 µM (inactive)

###

tested on: OVCAR-8; assay: NCI tumour cell line growth inhibition, 48 h
The source made the active and inactive calls. Cut-off read from the data, not from the text of the source: active = GI50 up to about 1.1 µM and inactive = higher.
Would you kindly list GI50 for each of these compounds?

C[n+]1c2ccccc2cc2c(CNC(CCCNC(=N)N)C(=O)O)cccc21 (stereo unspecified); 1.8 µM (inactive)
CC(O)C(N/C=C1/N=C(c2ccccc2)OC1=O)C(=O)O (stereo unspecified); > 100 µM (inactive)

Would you mind giving GI50 for every compound in the list below?
1. Nc1nnc2c(-c3ccccc3)n[nH]c2n1
2. O=C1/C(=C\c2ccc(-c3ccc(Cl)cc3Cl)o2)SC2NC(COc3ccc(Cl)cc3)=NN12 (stereo unspecified)
3. C[C@]12CCC(=O)O[C@H]1CCCCO2
4. N#CC(c1ccccc1)N(CCOCCOCCN(C(=O)c1cccc2ccccc12)C(C#N)c1ccccc1)C(=O)c1cccc2ccccc12 (stereo unspecified)
5. O=C(NCCCN(CCCCN(CCCNC(=O)C(F)(F)F)Cc1ccc2ccccc2c1)Cc1ccc2ccccc2c1)C(F)(F)F
6. O=C(O)Cn1c(=O)[nH]c(=O)c2c1ncn2Cc1ccccc1
7. Oc1ccccc1/C=N/c1ccc(-c2nc3ccccc3[nH]2)cc1
8. COC(=O)C12C3C4C5C3(C#N)C1C5(C(=O)OC)C42C(=O)N(C(C)C)C(C)C (stereo unspecified)

49.7 µM (inactive)
38.3 µM (inactive)
> 100 µM (inactive)
> 100 µM (inactive)
> 100 µM (inactive)
> 100 µM (inactive)
47.1 µM (inactive)
> 63 µM (inactive)

Look up GI50: C=C1CC2[C@H](C)C(=O)CCC2(C)C2=C1C1CCC(C(C)CCC(=C)C(C)C(=O)O)C1(C)CC2=O (stereo partly specified)
75.7 µM (inactive)

###

Would you kindly list GI50 for each of these molecules?
system: SK-MEL-2; experiment: NCI tumour cell line growth inhibition, 48 h
Calls of active or inactive are those of the source. Rule as the data show it: active = GI50 up to about 1.1 µM and inactive = higher.

Solved cases below.
COC(=O)c1cc2c(cc1Cl)Sc1nnc(Nc3ccc(C)cc3)n1S2(=O)=O; 2.9 µM (inactive)
Cc1ccc(C(=O)C#Cc2cn(C3CC(O)C(CO)O3)c(=O)[nH]c2=O)cc1 (stereo not given); > 100 µM (inactive)
O=C1[C@@H]2C(c3ccccc3F)=NO[C@@H]2C(=O)N1c1ccc(Cc2ccc(N3C(=O)[C@H]4C(c5ccccc5F)=NO[C@H]4C3=O)cc2)cc1; > 100 µM (inactive)
CCCCSC1=N/C(=C\c2ccco2)C(Cl)=N1; > 100 µM (inactive)
N=C1C(=N)c2ccccc2-c2ccccc21; 1.55 µM (inactive)
NC(=O)NC1C(C(=O)O)N(Cc2ccccc2)C(=O)N1Cc1ccccc1 (stereo not given); > 100 µM (inactive)
COc1ccc(-c2cc(-c3ccccc3)nc3c2CC(=O)Nc2ccccc2-3)cc1OC; > 100 µM (inactive)
COc1cc(Nc2cnc3ccc(C(F)(F)F)cc3n2)cc(OC)c1OC; 24.7 µM (inactive)

Would you mind giving GI50 for every molecule in the list below?
1. O=S(=O)(C1=CC(S(=O)(=O)c2ccccc2)CN(Cc2ccccc2)C1c1cccc2ccccc12)c1ccccc1 (stereo not given)
2. COCCn1cnc2c(Cl)nc(Nc3ccccc3)nc21

["> 69 µM (inactive)", "17.7 µM (inactive)"]

###

system: DLD-1; test: NCI tumour cell line growth inhibition, 48 h
Activity calls are given as the source filed them. Cut-off read from the data, not from the text of the source: active = GI50 up to about 1.1 µM and inactive = higher.
Give one outcome, nothing more. List: label 1 (active), label 0 (inactive)

c1ccc2c(CNCCCCCCCCNCc3cccc4ccccc34)cccc2c1; label 0
O=C1/C(=C\c2ccccc2)C2/C(=C\c3ccccc3)C(=O)/C(=C\c3ccccc3)C2/C1=C\c1ccccc1 (configuration not stated); label 0
O=C1OC(c2ccccc2)=N/C1=C\c1ccc2ccccc2c1; label 0
COc1ccc2c(c1)CCc1c-2nc2cc3c(cc2c1O)OCO3; label 0
O=C1C=CC2(O)OCC3C=C4O[C@@H]5OC6(CCCCC6)O[C@@H]5C4[C@@H]2[C@@H]13 (some centres not stated); label 0
COC1/C(=C\C(=O)OC(C)(C)C)c2ccccc2N1C(C)=O (configuration not stated); label 0
CC1(C)OC2C(O1)[C@H]1OC(C(Cl)(Cl)Cl)=N[C@H]1C(I)[C@H]2N1C(=O)c2ccccc2C1=O (some centres not stated); label 0
CC(C)OP(=S)(NC(=S)c1ccccc1)OC(C)C; label 0

What did this assay record as the result for CNC(=O)NCCCC(NC(C)=O)C(=O)NCc1ccccc1 (configuration not stated) ?
label 0

What did this assay record as the result for CC[C@@]1(OC(=O)CN(C)C)C(=O)OCc2c1cc1n(c2=O)Cc2cc3ccccc3nc2-1 ?
label 1

What did this assay record as the result for COc1cc(C2c3cc4c(cc3[C@@H](Nc3ccc(Oc5ccccc5)cc3)C3COC(=O)[C@H]23)OCO4)cc(OC)c1O (some centres not stated) ?
label 0

What did this assay record as the result for CSc1nc(NC2OC(COC(C)=O)C(OC(C)=O)C(OC(C)=O)C2OC(C)=O)c(-c2csc(N)n2)c(=O)n1C (configuration not stated) ?
label 0

###

Would you kindly list GI50 for each of these compounds?
tested on: MDA-MB-231; assay: NCI tumour cell line growth inhibition, 48 h
Calls of active or inactive are those of the source. Cut-off read from the data, not from the text of the source: active = GI50 up to about 1.1 µM and inactive = higher.

Would you mind giving GI50 for every compound in the list below?
1. COCCn1cnc2c(Cl)nc(Nc3ccccc3)nc21
2. COc1ccc(/C=C/C(=O)c2cc(OC)cc(OC)c2)cc1
3. CCOC(=O)c1nc2cc(C(F)(F)F)ccc2nc1Nc1ccc(C(=O)NC(C(=O)OCC)C(=O)OCC)cc1
4. CCC1(CC)C(=O)N(C(=O)c2ccccc2)N(C(=O)c2ccc(Cl)cc2)C1=O

1. 27.7 µM (inactive)
2. 6.79 µM (inactive)
3. 17.4 µM (inactive)
4. > 75 µM (inactive)

###

tested on: 786-0; experiment: NCI tumour cell line growth inhibition, 48 h
Active and inactive are the calls of the source. No stated cut-off is given here; in the data, active = GI50 up to about 1.1 µM and inactive = higher.
Measured metric: GI50

O=C(O)Cn1c(=O)[nH]c(=O)c2c1ncn2Cc1ccccc1; > 100 µM (inactive)
O=[N+]([O-])c1ccc(Cl)cc1C1SCc2nc3ccccc3n21 (configuration not stated); 53 µM (inactive)
O=S(=O)(C1=CC(S(=O)(=O)c2ccccc2)CN(Cc2ccccc2)C1c1cccc2ccccc12)c1ccccc1 (configuration not stated); > 69 µM (inactive)
CCCCCCCCCCCCCP(=O)(O)OCC; > 100 µM (inactive)
CC(CN1CC(=O)NC(=O)C1)N1CC(=O)NC(=O)C1 (configuration not stated) [RAZOXANE]; 98.9 µM (inactive)

Would you mind giving GI50 for every compound in the list below?
1. Brc1cccc(Nc2ncnc3sc4c(c23)CCC2(C4)OCCO2)c1
2. O=C(O)C1CCCCC1c1c2ccc(=O)c(O)c-2oc2c(O)c(O)ccc12 (configuration not stated)

1: 25.7 µM (inactive); 2: 19.3 µM (inactive)

Would you mind giving GI50 for every compound in the list below?
1. COc1ccc(C2CC(=O)c3c(O)cc(O)cc3O2)cc1O (configuration not stated)
2. COc1cc2c(c(OC)c1)C1(CC(CC#N)C2)SCCS1 (configuration not stated)
3. COc1ccc2c(c1)N1CCc3cc(OC)c(OC)cc3C1C2 (configuration not stated)
4. C[C@]12O[C@@]3(C)O[C@@]3(C)[C@]3(C)O[C@]3(C)[C@@]1(C)O2

> 100 µM (inactive)
> 100 µM (inactive)
54.6 µM (inactive)
> 100 µM (inactive)

Would you mind giving GI50 for every compound in the list below?
1. CCOC(=O)/C=C(/C(=O)OCC)n1cc(C)c(=O)n(/C(=C/C(=O)OCC)C(=O)OCC)c1=O
2. O=C(NCC(=O)N1CCOC1=O)OCc1ccccc1
3. COc1cc(O)cc(O)c1C(=O)CC(Cl)(Cl)Cl
4. CC12CC3OC(=O)C1COC14OC5(C2C1=O)C(O)(CCC1C4CC(O)C2(O)CC=CC(=O)C12C)C(=O)OC35C (configuration not stated)
5. COc1ccc(N[S+]([O-])c2cccc(C)c2)cc1 (configuration not stated)

1: 1.28 µM (inactive); 2: > 100 µM (inactive); 3: > 100 µM (inactive); 4: > 100 µM (inactive); 5: > 100 µM (inactive)

Would you mind giving GI50 for every compound in the list below?
1. OC(CCNCc1ccccc1)c1ccc2ccccc2c1 (configuration not stated)
2. CCSc1n/c(=C\c2ccc(N(C)C)cc2)c2nnnn12
3. O=C(O)C(Cc1ccccc1)NCc1c(O)ccc2c(-c3ccccc3)cc(=O)oc12 (configuration not stated)
4. CN(O)C(=O)Cc1ccccc1
5. NC1CCC(c2cc3ccccc3s2)(N2CCCCC2)CC1 (configuration not stated)
6. CCCCCC(=O)Cc1cc(OC)cc2c1C(=O)Oc1cc(O)c(C(=O)O)c(CC(=O)CCCCC)c1O2

20.1 µM (inactive)
> 100 µM (inactive)
> 100 µM (inactive)
> 100 µM (inactive)
1.5 µM (inactive)
18.9 µM (inactive)
